Test system: RARg homodimer (NR concentration 270 nM)
Experiment: PBM binding z-score (relative to random genomic background probes); higher = stronger binding; sequences stand for … in GC…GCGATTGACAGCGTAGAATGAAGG
Binary call on PBM binding z-score: T from 0.8 upward, F beneath that.

1) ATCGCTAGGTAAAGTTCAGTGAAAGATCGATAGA T

Challenge: Confirm if PBM binding z-score reported for the sequence "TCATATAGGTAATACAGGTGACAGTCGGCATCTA" is 0.8 or above.
Response given: F

Challenge: Confirm if PBM binding z-score reported for the sequence "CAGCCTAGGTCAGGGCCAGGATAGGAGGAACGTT" is 0.8 or above.
Response given: T

Challenge: Confirm if PBM binding z-score reported for the sequence "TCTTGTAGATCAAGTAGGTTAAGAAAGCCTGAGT" is 0.8 or above.
Response given: F

Challenge: Confirm if PBM binding z-score reported for the sequence "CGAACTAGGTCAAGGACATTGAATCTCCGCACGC" is 0.8 or above.
Response given: T

Challenge: Confirm if PBM binding z-score reported for the sequence "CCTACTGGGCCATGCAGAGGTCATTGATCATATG" is 0.8 or above.
Response given: T

----------
System: PPARg:RXRa 90nM:30nM, anti-RXR (NR concentration 90 nM, RXRa partner concentration 30 nM)
Experiment: PBM binding z-score (relative to random genomic background probes); higher = stronger binding; sequences stand for … in GC…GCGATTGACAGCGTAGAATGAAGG
Measured Endpoint: PBM binding z-score
Field format: numeric only.

See these solved cases before continuing.
1) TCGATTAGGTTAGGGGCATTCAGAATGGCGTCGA 2.22
2) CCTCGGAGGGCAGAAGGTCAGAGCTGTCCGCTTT 1.44
3) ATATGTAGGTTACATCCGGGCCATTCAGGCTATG 3.05
4) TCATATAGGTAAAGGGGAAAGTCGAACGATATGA 4.52
5) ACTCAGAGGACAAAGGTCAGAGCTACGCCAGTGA 7.46

Challenge: Hello, please tell me recorded PBM binding z-score for this one: "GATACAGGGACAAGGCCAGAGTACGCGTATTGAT"
Response given: -0.175

Challenge: Hello, please tell me recorded PBM binding z-score for this one: "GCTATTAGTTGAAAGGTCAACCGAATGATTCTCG"
Response given: 7.52

Challenge: Hello, please tell me recorded PBM binding z-score for this one: "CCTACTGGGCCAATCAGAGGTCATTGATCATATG"
Response given: 2.29

Challenge: Hello, please tell me recorded PBM binding z-score for this one: "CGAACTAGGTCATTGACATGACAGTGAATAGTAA"
Response given: 6.29

Challenge: Hello, please tell me recorded PBM binding z-score for this one: "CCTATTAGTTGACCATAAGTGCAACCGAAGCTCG"
Response given: 0.574

Challenge: Hello, please tell me recorded PBM binding z-score for this one: "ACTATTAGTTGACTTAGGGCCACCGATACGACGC"
Response given: 0.363

Challenge: Hello, please tell me recorded PBM binding z-score for this one: "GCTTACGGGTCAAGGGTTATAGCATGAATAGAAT"
Response given: 8.05

----------
Tested on: FXR:RXRa (NR concentration 270 nM, RXRa partner concentration 90 nM)
Test: PBM binding z-score (relative to random genomic background probes); higher = stronger binding; sequences stand for … in GC…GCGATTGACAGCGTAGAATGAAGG
Measured Endpoint: PBM binding z-score
Field format: numeric only.

See these solved cases before continuing.
1. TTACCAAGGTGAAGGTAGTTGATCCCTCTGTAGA 0.475
2. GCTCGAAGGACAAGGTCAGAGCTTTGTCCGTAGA 1.53
3. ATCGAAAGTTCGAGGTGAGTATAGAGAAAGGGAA 0.831
4. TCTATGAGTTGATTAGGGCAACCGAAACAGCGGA 0.319

Turning now to a further sequence:
Challenge: Hello, please tell me recorded PBM binding z-score for this one: "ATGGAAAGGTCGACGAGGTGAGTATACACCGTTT"
Response given: 4.39

----------
System: RARg:RXRa (NR concentration 270 nM, RXRa partner concentration 90 nM)
Assay: PBM binding z-score (relative to random genomic background probes); higher = stronger binding; sequences stand for … in GC…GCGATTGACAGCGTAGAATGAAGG
Measured Endpoint: PBM binding z-score
Field format: numeric only.

Challenge: Hello, please tell me recorded PBM binding z-score for this one: "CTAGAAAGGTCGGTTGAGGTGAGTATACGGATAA"
Response given: 2.76

Challenge: Hello, please tell me recorded PBM binding z-score for this one: "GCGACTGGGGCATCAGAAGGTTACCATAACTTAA"
Response given: 1.74

Challenge: Hello, please tell me recorded PBM binding z-score for this one: "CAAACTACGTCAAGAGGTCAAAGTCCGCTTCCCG"
Response given: 5.45

Challenge: Hello, please tell me recorded PBM binding z-score for this one: "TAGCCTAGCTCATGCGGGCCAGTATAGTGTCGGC"
Response given: -0.81

Challenge: Hello, please tell me recorded PBM binding z-score for this one: "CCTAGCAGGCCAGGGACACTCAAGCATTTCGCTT"
Response given: -0.238

Challenge: Hello, please tell me recorded PBM binding z-score for this one: "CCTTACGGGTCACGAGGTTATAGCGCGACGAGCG"
Response given: 5.98

----------
System: RARa homodimer (NR concentration 270 nM)
Test: PBM binding z-score (relative to random genomic background probes); higher = stronger binding; sequences stand for … in GC…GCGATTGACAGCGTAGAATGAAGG
Recorded measurements of PBM binding z-score, one per entry
Field format: numeric only.

See these solved cases before continuing.
1) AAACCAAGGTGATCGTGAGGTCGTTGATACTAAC -0.27
2) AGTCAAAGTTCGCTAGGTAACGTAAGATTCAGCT 0.175
3) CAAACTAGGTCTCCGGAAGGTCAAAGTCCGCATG 0.122

Challenge: Hello, please tell me recorded PBM binding z-score for this one: "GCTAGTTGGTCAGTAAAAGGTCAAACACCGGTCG"
Response given: 1.53

Challenge: Hello, please tell me recorded PBM binding z-score for this one: "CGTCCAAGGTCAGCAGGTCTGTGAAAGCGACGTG"
Response given: 0.46

Challenge: Hello, please tell me recorded PBM binding z-score for this one: "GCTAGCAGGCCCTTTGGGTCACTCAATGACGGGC"
Response given: -0.612

Challenge: Hello, please tell me recorded PBM binding z-score for this one: "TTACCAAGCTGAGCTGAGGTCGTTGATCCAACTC"
Response given: -1.15

Challenge: Hello, please tell me recorded PBM binding z-score for this one: "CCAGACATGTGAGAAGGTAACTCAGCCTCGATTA"
Response given: 1.03

Challenge: Hello, please tell me recorded PBM binding z-score for this one: "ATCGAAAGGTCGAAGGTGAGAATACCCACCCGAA"
Response given: 0.941

----------
Recorded measurements of PBM binding z-score, one per entry
Tested on: FXR:RXRa (NR concentration 270 nM, RXRa partner concentration 90 nM)
Assay: PBM binding z-score (relative to random genomic background probes); higher = stronger binding; sequences stand for … in GC…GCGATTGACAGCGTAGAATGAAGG

See these solved cases before continuing.
1. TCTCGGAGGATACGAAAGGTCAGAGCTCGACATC 2.69
2. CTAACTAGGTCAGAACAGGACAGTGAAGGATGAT 1.45
3. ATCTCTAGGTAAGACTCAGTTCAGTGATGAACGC 0.343
4. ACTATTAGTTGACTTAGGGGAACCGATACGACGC 0.255
5. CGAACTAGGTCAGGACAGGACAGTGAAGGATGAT 1.85

Challenge: Hello, please tell me recorded PBM binding z-score for this one: "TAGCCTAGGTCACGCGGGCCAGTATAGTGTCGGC"
Response given: 5.13

Challenge: Hello, please tell me recorded PBM binding z-score for this one: "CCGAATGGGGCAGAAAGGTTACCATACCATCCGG"
Response given: 0.445

Challenge: Hello, please tell me recorded PBM binding z-score for this one: "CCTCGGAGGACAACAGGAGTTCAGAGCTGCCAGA"
Response given: 0.094

----------
Test system: PXR homodimer (NR concentration 270 nM)
Assay: PBM binding z-score (relative to random genomic background probes); higher = stronger binding; sequences stand for … in GC…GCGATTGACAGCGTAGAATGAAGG
Measured Endpoint: PBM binding z-score
Field format: numeric only.

See these solved cases before continuing.
1. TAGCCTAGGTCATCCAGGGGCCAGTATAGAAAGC -0.246
2. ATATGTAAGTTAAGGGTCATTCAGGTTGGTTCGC 2.93
3. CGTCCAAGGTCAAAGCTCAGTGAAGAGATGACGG 0.865
4. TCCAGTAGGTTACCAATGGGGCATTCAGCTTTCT -0.589
5. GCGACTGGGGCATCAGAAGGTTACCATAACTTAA -0.271

Challenge: Hello, please tell me recorded PBM binding z-score for this one: "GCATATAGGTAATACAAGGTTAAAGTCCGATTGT"
Response given: 0.613

Challenge: Hello, please tell me recorded PBM binding z-score for this one: "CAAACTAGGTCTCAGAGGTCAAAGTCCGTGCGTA"
Response given: 2.93

Challenge: Hello, please tell me recorded PBM binding z-score for this one: "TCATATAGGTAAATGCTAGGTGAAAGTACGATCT"
Response given: 0.678
